Experiment: Plasma pharmacokinetic studies of idronoxil in rats (rectal in cocoa butter vs intestinal in lipid emulsion)
Format: in vivo, Male Sprague-Dawley rats
Settings: male, Sprague-Dawley, rat, plasma, other: rectal, 10 mg/kg, Rectal delivery, cocoa butter, 10 mg/kg, 7 hr; read-out: Idronoxil Plasma Concentration Rat 2

[
  {
    "Smiles Data": "Oc1ccc(C2=Cc3ccc(O)cc3OC2)cc1",
    "concentration at 7 h / ng/mL": 43
  }
]

---

Test: Plasma pharmacokinetic studies of idronoxil in rats (rectal in cocoa butter vs intestinal in lipid emulsion)
Assay type: in vivo, Male Sprague-Dawley rats
Conditions: male, Sprague-Dawley, rat, plasma, other: rectal, 10 mg/kg, Rectal delivery, cocoa butter, 10 mg/kg, 8 hr; read-out: Idronoxil Plasma Concentration Rat 1
Test Readout: concentration at 8 h (ng/mL)

[
  {
    "Smiles Data": "Oc1ccc(C2=Cc3ccc(O)cc3OC2)cc1",
    "Recorded Result": 5.74
  }
]
